tested on: MV4-11 cells; test: Cell proliferation assay MV4;11 (CellTiter-Glo, 72 hours); type: cell-based; conditions: Homo sapiens; MV4;11 leukemia cell line, 72 hours; read-out: MV4; 11 IC50
For each record, write down the corresponding IC50.

As a guide, the following entries are already answered.
CCN(C)S(=O)(=O)N[C@@H]1CC[C@@H](CN2CCC3(CC2)CN(c2ncncc2Oc2ccc(F)cc2C(=O)N2[C@H](C)COC[C@H]2C)C3)OC1 = < 100 nM
C[C@@H]1COC[C@@H](C)N1C(=O)c1cc(F)ccc1Oc1cncnc1N1CC2(CCN(C[C@@H]3CC[C@@H](NS(=O)(=O)N(C)C4CC4)CO3)CC2)C1 = < 100 nM
CC(C)N(C(=O)c1cc(F)ccc1Oc1cncnc1N1CC2(CCN(C[C@@H]3CC[C@@H](NS(=O)(=O)N(C)C)CO3)CC2)C1)[C@H]1CCOC1 = < 100 nM

Below is a list of compounds. For each, state its recorded IC50.
1. C[C@@H]1COC[C@H](C)N1C(=O)c1cc(F)ccc1Oc1cncnc1N1CC2(CCN(C[C@@H]3CC[C@@H](NS(=O)(=O)N4CCC4)CO3)CC2)C1
2. CC(C)N(CC(F)F)C(=O)c1cc(F)ccc1Oc1nncnc1N1CC2(CCN(C[C@@H]3CC[C@@H](NS(=O)(=O)C4CC4)CO3)CC2)C1
3. CCN(C(=O)c1cc(F)ccc1Oc1cncnc1N1CC2(CCN(C[C@@H]3CC[C@@H](NC(=O)Nc4ccccc4)CO3)CC2)C1)C(C)C

< 100 nM
< 100 nM
100 to 1000 nM

---

Hi there, I'd appreciate the recorded Ki for every entry that follows.
target: Menin-MLL (Homo sapiens (Human)); experiment: Determination of binding constants (Ki) to Menin-MLL (HTRF); conditions: HTRF; 0.25 nM H-FL-Menin, 3.2 nM FITC-MLL-4-43, 24 hr incubation; read-out: Menin-MLL Ki HTRF Assay: Ki
Sequence (O00255 whole entry): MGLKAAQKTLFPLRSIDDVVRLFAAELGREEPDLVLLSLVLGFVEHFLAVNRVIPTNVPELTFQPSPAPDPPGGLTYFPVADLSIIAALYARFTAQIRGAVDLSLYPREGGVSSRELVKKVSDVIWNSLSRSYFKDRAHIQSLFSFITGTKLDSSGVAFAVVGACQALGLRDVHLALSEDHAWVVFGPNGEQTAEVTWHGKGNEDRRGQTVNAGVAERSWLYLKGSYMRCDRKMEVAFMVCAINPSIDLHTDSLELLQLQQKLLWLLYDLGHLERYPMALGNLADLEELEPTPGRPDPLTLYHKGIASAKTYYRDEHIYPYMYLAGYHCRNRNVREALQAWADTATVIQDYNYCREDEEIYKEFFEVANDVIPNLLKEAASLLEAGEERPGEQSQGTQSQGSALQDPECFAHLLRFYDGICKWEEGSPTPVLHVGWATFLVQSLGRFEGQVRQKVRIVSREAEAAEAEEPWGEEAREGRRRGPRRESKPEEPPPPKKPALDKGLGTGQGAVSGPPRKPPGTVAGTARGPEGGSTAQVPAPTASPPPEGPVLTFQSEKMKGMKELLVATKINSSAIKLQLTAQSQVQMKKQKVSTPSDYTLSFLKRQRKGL

Sample records with Ki:
CCS(=O)(=O)N[C@@H]1CC[C@@H](CN2CCC3(CC2)CN(c2ncncc2Oc2ccc(F)cc2C(=O)N(C(C)C)[C@H]2[C@@H]4COC[C@@H]42)C3)OC1 = < 1 nM
Cc1nc(S(=O)(=O)N[C@@H]2CC[C@@H](CN3CCC4(CC3)CN(c3ncncc3Oc3ccc(F)cc3C(=O)N(C(C)C)C(C)C)C4)OC2)cs1 = < 1 nM

// Ki lookup, key: CC(C)N(CCC#N)C(=O)c1cc(F)ccc1Oc1cncnc1N1CC2(CCN(C[C@@H]3CC[C@@H](NS(=O)(=O)N(C)C)CO3)CC2)C1
< 1 nM

---

biological target: hERG (Homo sapiens (Human)); experiment: Patch clamp assay (hERG tail currents, whole-cell); format: cell-based; conditions: 30 μM compound, hERG transfected HEK 293 cells
Sequence (Q12809 whole entry): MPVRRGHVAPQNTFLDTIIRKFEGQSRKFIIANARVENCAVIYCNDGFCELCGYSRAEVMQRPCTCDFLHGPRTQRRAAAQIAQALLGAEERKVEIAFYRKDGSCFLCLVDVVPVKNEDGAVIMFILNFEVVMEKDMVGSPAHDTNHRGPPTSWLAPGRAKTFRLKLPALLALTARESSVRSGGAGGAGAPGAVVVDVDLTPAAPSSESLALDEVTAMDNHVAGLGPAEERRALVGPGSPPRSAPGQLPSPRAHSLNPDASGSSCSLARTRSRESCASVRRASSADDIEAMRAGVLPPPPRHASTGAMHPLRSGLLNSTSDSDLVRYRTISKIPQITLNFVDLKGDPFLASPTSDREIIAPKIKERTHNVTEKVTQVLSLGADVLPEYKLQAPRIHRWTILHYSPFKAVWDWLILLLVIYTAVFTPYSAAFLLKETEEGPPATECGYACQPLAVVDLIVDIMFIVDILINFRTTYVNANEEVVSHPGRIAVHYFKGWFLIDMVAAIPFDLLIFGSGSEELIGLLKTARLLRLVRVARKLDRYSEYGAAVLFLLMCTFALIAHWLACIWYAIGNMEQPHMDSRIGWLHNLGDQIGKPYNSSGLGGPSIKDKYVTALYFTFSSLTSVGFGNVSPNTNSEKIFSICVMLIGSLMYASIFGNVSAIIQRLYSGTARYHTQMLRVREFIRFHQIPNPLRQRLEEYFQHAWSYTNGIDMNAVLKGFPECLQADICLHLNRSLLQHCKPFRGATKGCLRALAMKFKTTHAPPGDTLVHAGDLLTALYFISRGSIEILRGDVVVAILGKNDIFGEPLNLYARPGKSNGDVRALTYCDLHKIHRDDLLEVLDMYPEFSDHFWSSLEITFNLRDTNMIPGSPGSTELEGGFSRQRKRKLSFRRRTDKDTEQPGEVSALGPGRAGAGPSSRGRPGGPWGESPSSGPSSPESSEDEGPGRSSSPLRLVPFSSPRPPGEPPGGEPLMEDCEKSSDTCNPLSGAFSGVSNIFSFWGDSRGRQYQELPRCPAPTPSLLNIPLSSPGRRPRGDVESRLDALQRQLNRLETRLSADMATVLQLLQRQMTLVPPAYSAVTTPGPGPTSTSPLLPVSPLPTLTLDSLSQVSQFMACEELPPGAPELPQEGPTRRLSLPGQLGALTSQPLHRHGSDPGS
ATTRIBUTE_MEASURED: hERG % Remaining 30 μM

Known results for molecules:
CO[C@@H]1CCN(S(=O)(=O)N[C@@H]2CC[C@@H](CN3CCC4(CC3)CN(c3ncncc3Oc3ccc(F)cc3C(=O)N(C(C)C)C(C)C)C4)OC2)C1 [Compound 211] = +++ (“+++” means ≥66%)
CC(C)N(CC(F)F)C(=O)c1cc(F)ccc1Oc1nncnc1N1CC2(CCN(C[C@@H]3CC[C@@H](NS(=O)(=O)N4CCC4)CO3)CC2)C1 [Compound 189] = +++ (“+++” means ≥66%)
CC(C)N(C(=O)c1cc(F)ccc1Oc1cncnc1N1CC2(CCN(C[C@@H]3CC[C@@H](NS(C)(=O)=O)CO3)CC2)C1)C(C)C [Compound 12] = +++ (“+++” means ≥66%)
CCNS(=O)(=O)N[C@@H]1CC[C@@H](CN2CCC3(CC2)CN(c2ncncc2Oc2ccc(F)cc2C(=O)N(C(C)C)C(C)C)C3)OC1 [Compound 144] = +++ (“+++” means ≥66%)

Field: hERG % Remaining 30 μM. Fill in for each record below.
1. CC(C)N(CC(F)F)C(=O)c1cc(F)ccc1Oc1cncnc1N1CC2(CCN(C[C@@H]3CC[C@@H](NS(=O)(=O)N(C)CCCO)CO3)CC2)C1 [Compound 214]
2. CCNS(=O)(=O)N[C@@H]1CC[C@@H](CN2CCC3(CC2)CN(c2ncnnc2Oc2ccc(F)cc2C(=O)N(CC(F)(F)F)C(C)C)C3)OC1 (single isomer, unassigned) [Compound 193]
3. C[C@@H]1COC[C@@H](C)N1C(=O)c1cc(F)ccc1Oc1cncnc1N1CC2(CCN(C[C@@H]3CC[C@@H](NS(=O)(=O)N4CCC[C@@H]4C)CO3)CC2)C1 [Compound 209]

1: +++ (“+++” means ≥66%); 2: +++ (“+++” means ≥66%); 3: +++ (“+++” means ≥66%)

From: patent US11919901B2
